Values compiled from patent US20250304620A1.

Test system: Pseudomonas aeruginosa ATCC 27853
Type: cell-based
Text: According to the Standards of Clinical and Laboratory Standards Institute (CLSI) of the USA for antimicrobial drug susceptibility test operation standards, the micronutrient serial twofold dilution method was used further determine MICs of 30 AMPs (S/N: LV-1 to LV-30) 10 clinically common sensitive strains and 6 fungi in clinical practice. The experiment was repeated 5 times in parallel.
Non-standard residues stand in square brackets, D forms with d. Residues, ends and D or L forms follow the SMILES beside them. dPhe(4-F) = N[C@H](Cc1ccc(F)cc1)C(=O)O; d2Nal = N[C@H](Cc1ccc2ccccc2c1)C(=O)O
endpoint name: MIC Pseudomonas aeruginosa ATCC 27853 (µg/mL)
Give bare numbers, in µg/mL.

// recorded MIC Pseudomonas aeruginosa ATCC 27853 for CC(=O)N[C@H](CCCNC(=N)N)C(=O)N[C@H](CCCCN)C(=O)N[C@H](C)C(=O)N[C@H](C)C(=O)N[C@H](Cc1ccc2ccccc2c1)C(=O)N[C@H](CCCNC(=N)N)C(=O)N[C@H](C)C(=O)N[C@H](CCCCN)C(=O)N[C@H](Cc1ccc2ccccc2c1)C(=O)N[C@H](CCCNC(=N)N)C(=O)N[C@H](CCCCN)C(N)=O [LV-15] (Ac-[dR][dK][dA][dA][d2Nal][dR][dA][dK][d2Nal][dR][dK]-NH2) : 4

Now consider a different molecule.
Looking up CC(=O)N[C@H](CCCNC(=N)N)C(=O)N[C@H](CCCCN)C(=O)N[C@H](CC(C)C)C(=O)N[C@H](CC(C)C)C(=O)N[C@H](Cc1ccc(F)cc1)C(=O)N[C@H](CCCCN)C(=O)N[C@H](CC(C)C)C(=O)N[C@H](CCCCN)C(=O)N[C@H](Cc1ccc(F)cc1)C(=O)N[C@H](CCCCN)C(=O)N[C@H](CCCNC(=N)N)C(N)=O [LV-5] (Ac-[dR][dK][dL][dL][dPhe(4-F)][dK][dL][dK][dPhe(4-F)][dK][dR]-NH2) , I see its MIC Pseudomonas aeruginosa ATCC 27853 listed as 2
